// data source = patent US8884023B2

Target: His-Tagged hOGA (human O-GlcNAcase) (Homo sapiens, UniProt O60502)
Assay: biochemical
Conditions: 20 nM His-Tagged hOGA, 10 μM FL-GlcNAc, pH 6.5, 60 min room temperature; read-out: OGA enzyme inhibition (IC50)
pIC50: −log10 of the molar value.
observedProperty: pIC50

Query: Find the recorded pIC50 belonging to CCN(C(=O)OCc1ccccc1)C1=N[C@@H]2[C@@H](O)[C@H](O)[C@@H](CO)O[C@@H]2S1 and report it.
Result: 6.30 to 7.00

* * *

pIC50 reference
Molecular target: His-Tagged hOGA (human O-GlcNAcase) (Homo sapiens, UniProt O60502)
Sequence (O60502 1-916): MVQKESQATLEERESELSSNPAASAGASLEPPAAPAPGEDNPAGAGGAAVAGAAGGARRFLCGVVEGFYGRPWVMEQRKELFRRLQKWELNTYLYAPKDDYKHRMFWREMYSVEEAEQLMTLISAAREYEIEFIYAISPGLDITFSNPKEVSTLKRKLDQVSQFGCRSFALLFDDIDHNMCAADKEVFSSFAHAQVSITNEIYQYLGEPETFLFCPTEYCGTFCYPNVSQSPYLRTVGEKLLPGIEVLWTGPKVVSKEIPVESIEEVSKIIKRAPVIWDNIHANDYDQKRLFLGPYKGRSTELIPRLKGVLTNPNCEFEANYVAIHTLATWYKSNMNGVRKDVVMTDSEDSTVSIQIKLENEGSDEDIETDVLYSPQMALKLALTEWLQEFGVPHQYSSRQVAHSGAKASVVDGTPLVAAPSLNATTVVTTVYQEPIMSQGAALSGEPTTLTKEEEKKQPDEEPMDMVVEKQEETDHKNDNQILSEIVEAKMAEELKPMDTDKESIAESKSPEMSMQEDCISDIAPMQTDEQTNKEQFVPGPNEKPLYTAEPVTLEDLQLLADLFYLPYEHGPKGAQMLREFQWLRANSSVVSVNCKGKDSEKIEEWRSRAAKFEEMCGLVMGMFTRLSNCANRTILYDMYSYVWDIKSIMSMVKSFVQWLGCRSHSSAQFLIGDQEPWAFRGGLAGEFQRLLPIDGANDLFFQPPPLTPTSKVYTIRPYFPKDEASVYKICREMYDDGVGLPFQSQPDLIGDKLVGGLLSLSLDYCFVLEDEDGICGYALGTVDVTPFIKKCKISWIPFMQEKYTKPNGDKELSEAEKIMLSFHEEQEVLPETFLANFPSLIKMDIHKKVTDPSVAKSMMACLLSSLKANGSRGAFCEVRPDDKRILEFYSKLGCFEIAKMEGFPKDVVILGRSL
Assay: biochemical
pIC50: −log10 of the molar value.

These recorded examples may help you get a feel for the data.
Query: Form field: reported pIC50 of CCNC1=N[C@@H]2[C@@H](O)[C@H](O)[C@@H](Cn3cc(-c4cn(S(=O)(=O)c5ccccc5)c5ccccc45)nn3)O[C@@H]2S1
Result: > 7.00

Query: Try this molecule next: CCNC1=N[C@@H]2[C@@H](O)[C@H](O)[C@@H](Cn3cc(CCc4ccccc4)nn3)O[C@@H]2S1
Result: > 7.00

Query: Another: CCNC1=N[C@@H]2[C@@H](O)[C@H](O)[C@@H](Cn3cc(COc4ccccc4C#N)nn3)O[C@@H]2S1
Result: > 7.00

Query: Same question for CCNC1=N[C@@H]2[C@@H](O)[C@H](O)[C@@H](Cn3cc(C4(c5ccccc5)CCCC4)nn3)O[C@@H]2S1 please.
Result: 6.30 to 7.00

Query: Now try CCNC1=N[C@@H]2[C@@H](O)[C@H](O)[C@@H](C(=O)CCCc3ccccc3)O[C@@H]2S1 .
Result: < 6.00

Attention now turns to another entry.
Query: Quick one: pIC50 of CCNC1=N[C@@H]2[C@@H](O)[C@H](O)[C@@H](Cn3cc(Cn4c(C(F)(F)F)nc5ccccc54)nn3)O[C@@H]2S1 ?
Result: > 7.00

* * *

Molecular target: His-Tagged hOGA (human O-GlcNAcase) (Homo sapiens)
Assay: biochemical
pIC50: −log10 of the molar value.
observedProperty: pIC50

Query: Name the reported pIC50 value associated with the molecule CCNC1=N[C@@H]2[C@@H](OC)[C@H](O)[C@@H](CO)O[C@@H]2S1
Result: < 6.00

Query: // repeat for CCNC1=N[C@@H]2[C@@H](O)[C@H](O)[C@@H](Cn3cc(COc4cccc(Cl)c4)nn3)O[C@@H]2S1 and report
Result: > 7.00

Query: Ok, now CCNC1=N[C@@H]2[C@@H](O)[C@H](O)[C@@H](Cn3cc(COc4cccc(OC)c4)nn3)O[C@@H]2S1
Result: > 7.00

Query: Please answer likewise for CCNC1=N[C@@H]2[C@@H](O)[C@H](O)[C@@H](C=O)O[C@@H]2S1
Result: > 7.00

* * *

Target: O-GlcNAcase (UniProt Q8VIJ5)
Format: cell-based
Settings: cells expressing endogenous O-GlcNAcase (such as rat B35, rat PC-12, human SH-SY5Y), approximately 16 hours treatment; read-out: OGA cellular inhibition (EC50)
pEC50: −log10 of the molar value.
observedProperty: pEC50

Solved cases (5 shown):
Query: What value of pEC50 has been recorded for this entry: CCNC1=N[C@@H]2[C@@H](O)[C@H](O)[C@@H](Cn3cc(COc4cccc(C#N)c4)nn3)O[C@@H]2S1
Result: 6.00 to 6.30

Query: Moving on to the next compound: CCNC1=N[C@@H]2[C@@H](O)[C@H](O)[C@@H](Cn3cc(COc4cccc(C(C)O)c4)nn3)O[C@@H]2S1 (some centres unmarked)
Result: < 6.00

Query: Another compound to look at: CCNC1=N[C@@H]2[C@@H](O)[C@H](O)[C@@H](Cn3cc(COc4ccc(C)cc4)nn3)O[C@@H]2S1
Result: < 6.00

Query: # repeat for CCNC1=N[C@@H]2[C@@H](O)[C@H](O)[C@@H](COC(=O)OC(C)(C)C)O[C@@H]2S1
Result: > 7.00

Query: Same read-out for CCNC1=N[C@@H]2[C@@H](O)[C@H](O)[C@@H](Cn3cc(COc4ccccc4)nn3)O[C@@H]2S1 ?
Result: 6.00 to 6.30

---
Query: I'd like to know its pEC50. The compound in question is CCNC1=N[C@@H]2[C@@H](O)[C@H](O)[C@@H](Cn3cc(Cn4c5ccccc5c5ccccc54)nn3)O[C@@H]2S1
Result: 6.30 to 7.00

Query: Quick one: CCNC1=N[C@@H]2[C@@H](O)[C@H](O)[C@@H](CN(C)C)O[C@@H]2S1
Result: 6.30 to 7.00

Query: Follow-up entry: CCNC1=N[C@@H]2[C@@H](O)[C@H](O)[C@@H](Cn3cc(COc4ccccc4F)nn3)O[C@@H]2S1
Result: 6.30 to 7.00

Query: Okay, and CCNC1=N[C@@H]2[C@@H](O)[C@H](O)[C@@H](COC(c3ccccc3)(c3ccccc3)c3ccccc3)O[C@@H]2S1 ?
Result: < 6.00

Query: And the next one, CCNC1=N[C@@H]2[C@@H](O)[C@H](O)[C@@H](CBr)O[C@@H]2S1 ?
Result: 6.30 to 7.00

Query: Another compound to check: CCNC1=N[C@@H]2[C@@H](O)[C@H](O)[C@@H](Cn3cc(COc4cccc(Br)c4)nn3)O[C@@H]2S1
Result: 6.30 to 7.00

Query: Would you kindly repeat that for CCNC1=N[C@@H]2[C@@H](O)[C@H](O)[C@@H](Cn3cc(COc4cccc(S(C)(=O)=O)c4)nn3)O[C@@H]2S1 ?
Result: < 6.00

Query: Repeat with CCNC1=N[C@@H]2[C@@H](O)[C@H](O)[C@@H](Cn3cc(C(C)(O)c4ccccc4)nn3)O[C@@H]2S1 (some centres unmarked)
Result: > 7.00

Query: Then what about the compound CCNC1=N[C@@H]2[C@@H](O)[C@H](O)[C@@H](Cn3cc(COc4cccc(Cl)c4)nn3)O[C@@H]2S1 ?
Result: > 7.00

* * *

Property: pIC50; scope: individual compounds
Target: His-Tagged hOGA (human O-GlcNAcase) (Homo sapiens, UniProt O60502)
Assay: biochemical
Conditions: read-out: OGA enzyme inhibition (IC50)
pIC50: −log10 of the molar value.

Query: Find the recorded pIC50 belonging to CCNC1=N[C@@H]2[C@@H](O)[C@H](O)[C@@H](Cn3cc(COC)nn3)O[C@@H]2S1 and report it.
Result: 6.30 to 7.00

More entries:
Query: Item under review: CCNC1=N[C@@H]2[C@@H](OS(C)(=O)=O)[C@H](O)[C@@H](CO)O[C@@H]2S1 . Reported pIC50?
Result: 6.30 to 7.00

Query: Cool, now CCNC1=N[C@@H]2[C@@H](O)[C@H](O)[C@@H](CBr)O[C@@H]2S1
Result: > 7.00

Query: Then CCNC1=N[C@@H]2[C@@H](O)[C@H](O)[C@@H](CNCc3ccccc3)O[C@@H]2S1 ?
Result: 6.00 to 6.30

Query: Request: CCNC1=N[C@@H]2[C@@H](O)[C@H](O)[C@@H](Cn3cc(Cn4c5ccccc5c5ccccc54)nn3)O[C@@H]2S1
Result: 6.30 to 7.00

Query: Next compound: CCNC1=N[C@@H]2[C@@H](O)[C@H](O)[C@@H](Cn3cc(-c4ccccc4)nn3)O[C@@H]2S1
Result: 6.30 to 7.00
